The origin of these recorded values is paper PMC13266984.

Target: Human ALDH3A1 (Homo sapiens)
Assay: ALDH3A1 biochemical assay (benzaldehyde/NADP+, diaphorase-resazurin readout, 1,536-well)
Conditions: Table S1, primary screen; curve class
value-kind: CC-v2
Please respond with just the number, no unit label.

Given CC1(COCC2CC2)COc2ccc(C(=O)Nc3cccc([S+](C)(=O)[O-])c3)cc2N1 (centres unmarked) [NCGC00416184-01] , state its recorded CC-v2. -2.4

Given COc1ccc(CCC(=O)N2CCc3[nH]c(=O)c(C#N)cc3C2)c(OC)c1OC [NCGC00527314-01] , state its recorded CC-v2. -2.4

Given COc1cccc(NC(=O)O[C@@H]2CO[C@H]3[C@@H]2OC[C@@H]3Nc2nccc(-c3ccccc3)n2)c1 [NCGC00398388-01] , state its recorded CC-v2. -2.4

Given O=C(NCC(F)(F)F)c1cc(C2CCN(C(=O)c3cc(-c4ccco4)n[nH]3)CC2)n[nH]1 [NCGC00528999-01] , state its recorded CC-v2. -2.4

Given COc1cccc(CN2CC(C(=O)NCc3cc4ccccc4[nH]3)CCC2=O)c1 (centres unmarked) [NCGC00449252-01] , state its recorded CC-v2. -2.2

Given CNCc1cn(C[C@H]2O[C@@H](CC(=O)NCc3ccc(F)cc3)[C@H](O)[C@@H]2O)nn1 [NCGC00400077-01] , state its recorded CC-v2. -2.2

Given Cc1cc(OC2CN(C(=O)c3cc(-c4ccc(F)cc4)n[nH]3)C2)n2ncnc2n1 [NCGC00531207-01] , state its recorded CC-v2. -2.3

Given CN(C)CC1(O)CCN(C(=O)Cn2cc(C(=O)C3CC3)c3ccccc32)C1 (centres unmarked) [NCGC00438461-01] , state its recorded CC-v2. -2.4

* * *

Please respond with reported Cell_CC-v2 for every item in the list.
Molecular target: OE19 (3A1) (Homo sapiens, UniProt P30838)
Sequence (P30838 whole entry): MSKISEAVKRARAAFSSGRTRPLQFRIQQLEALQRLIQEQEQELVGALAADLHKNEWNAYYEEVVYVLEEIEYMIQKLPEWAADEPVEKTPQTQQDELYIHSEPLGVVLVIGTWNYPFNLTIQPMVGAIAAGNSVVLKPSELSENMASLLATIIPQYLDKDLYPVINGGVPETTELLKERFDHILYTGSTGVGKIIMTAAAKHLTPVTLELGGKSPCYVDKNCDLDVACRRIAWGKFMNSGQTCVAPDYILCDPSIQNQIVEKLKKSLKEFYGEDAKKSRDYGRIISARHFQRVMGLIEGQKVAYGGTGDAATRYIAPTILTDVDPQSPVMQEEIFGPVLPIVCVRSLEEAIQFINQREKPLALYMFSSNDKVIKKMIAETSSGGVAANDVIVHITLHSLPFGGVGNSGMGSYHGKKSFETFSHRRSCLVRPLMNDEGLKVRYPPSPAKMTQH
Experiment: Cellular ALDEFLUOR assay in OE19 cells (preferential ALDH3A1 expression)
Details: Table S4, cellular curve class
Please respond with just the number, no unit label.

Can you look up Cell_CC-v2 on OE19 (3A1) (Homo sapiens, UniProt P30838) for CCc1ccc(N2CCN(c3nc(C(=O)NCc4cccc(C)c4)cs3)CC2)cc1 [NCGC01211128-01] ? -1.1

Can you look up Cell_CC-v2 on OE19 (3A1) (Homo sapiens, UniProt P30838) for Cc1cccc(CNC(=O)c2csc(N3CCN(c4ccc(Cl)c(Cl)c4)CC3)n2)c1 [NCGC01211120-01] ? -1.1

Can you look up Cell_CC-v2 on OE19 (3A1) (Homo sapiens, UniProt P30838) for Cc1cccc(CNC(=O)c2csc(N3CCN(c4ccc(C5(C#N)CCCC5)cc4)CC3)n2)c1 [NCGC01210598-01] ? -2.1

Can you look up Cell_CC-v2 on OE19 (3A1) (Homo sapiens, UniProt P30838) for Cc1cccc(CNC(=O)c2csc(N3CCN(c4cccc(F)c4)CC3)n2)c1 [NCGC01219288-01] ? -1.1

Can you look up Cell_CC-v2 on OE19 (3A1) (Homo sapiens, UniProt P30838) for Cc1cccc(CNC(=O)c2csc(N3CCN(c4ccc([S+](=O)([O-])F)cc4)CC3)n2)c1 [NCGC01211171-01] ? -1.1

Can you look up Cell_CC-v2 on OE19 (3A1) (Homo sapiens, UniProt P30838) for CCc1ccc(N2CCN(c3nc(C(=O)NCc4cccc(C)c4)cs3)CC2)cc1Cl [NCGC01211398-01] ? -1.1

Can you look up Cell_CC-v2 on OE19 (3A1) (Homo sapiens, UniProt P30838) for Cc1cccc(CNC(=O)c2csc(N3CCN(c4ccc(N5CCOCC5)cc4)CC3)n2)c1 [NCGC01211186-01] ? -1.1

Can you look up Cell_CC-v2 on OE19 (3A1) (Homo sapiens, UniProt P30838) for Cc1cccc(CNC(=O)c2csc(N3CCN(c4cc(F)cc(F)c4)CC3)n2)c1 [NCGC01211133-01] ? -1.1

Can you look up Cell_CC-v2 on OE19 (3A1) (Homo sapiens, UniProt P30838) for Cc1cccc(CNC(=O)c2csc(N3CCN(c4cc(C(F)(F)F)nc5ccccc45)CC3)n2)c1 [NCGC01210239-01] ? -2.4
